system: RXF 393 renal; experiment: NCI tumour cell line growth inhibition, 48 h
VALUE_TYPE: TGI

Sure, the documented TGI for NNC(=O)C(O)C(O)C(=O)NN (configuration not stated) is > 100 µM

Sure, the documented TGI for O=S(=O)(O)c1cc(S(=O)(=O)O)c2c(N=Nc3ccc(N=Nc4ccccc4)cc3)c(O)ccc2c1 is > 100 µM

Sure, the documented TGI for COc1cc(/C=N/NC2=NCCN2)ccc1O is > 100 µM

Sure, the documented TGI for Cc1cc(Br)cc(C)c1NC(=O)C(=O)Nn1c(=S)[nH]c2ccccc2c1=O is > 100 µM

Sure, the documented TGI for Cc1ccc(/C=C2\N=C(N3CCCC(CO)C3)NC2=O)cc1 (configuration not stated) is > 100 µM

Sure, the documented TGI for CC1(C)CC(=O)C2=C(C1)OC1(CC2c2ccc(Cl)cc2)CC(c2ccc(Cl)cc2)C2=C(CC(C)(C)CC2=O)O1 (configuration not stated) is 94.3 µM

Sure, the documented TGI for [CH3][Sn]1([CH3])[O]CC(COc2cc(Cl)c(Cl)cc2Cl)[O]1 (configuration not stated) is > 100 µM

Sure, the documented TGI for O=c1c2ccccc2nc(-c2ccccc2)n1NC(=S)Nc1cccc(Cl)c1 is 67.1 µM

Sure, the documented TGI for O=C(CCC1CCCCN1)Nc1ccc2c(c1)C(=O)c1ccc(NC(=O)CCN3CCCCC3)cc1C2=O (configuration not stated) is 2.07 µM

Sure, the documented TGI for Cc1ccccc1NC(=O)Cc1csc(N=Nc2c(O)[nH]c3ccccc23)n1 is 69.5 µM

Sure, the documented TGI for Cc1ccc(S(=O)(=O)NC(CO)C(=O)O)cc1 (configuration not stated) is > 100 µM

Sure, the documented TGI for Cc1ccc(/C=C2/N=C(N/N=C\c3ccccc3)NC2=O)cc1 is 66 µM

Sure, the documented TGI for COc1ccc(-c2nc(C(=O)c3ccccc3)n(CC(=O)c3ccc(Cl)cc3)c2-c2ccc(OC)cc2)cc1 is > 100 µM

Sure, the documented TGI for COC(=O)C(NC(=O)OC(C)(C)C)P(=O)(OC)OC (configuration not stated) is > 100 µM

Sure, the documented TGI for O=C(Nc1cccc(C(F)(F)F)c1)c1cc2ccccc2cc1O is > 30.4 µM

Sure, the documented TGI for CCN(CC)CCO[Si](OCCN(CC)CC)(OCCN(CC)CC)OCCN(CC)CC is > 100 µM

Sure, the documented TGI for COc1ccc(-c2n/c(=C\c3c(O)[nH]c4ccccc34)cc3c2=Nc2ccccc2-3)cc1 is 2.67 µM

Sure, the documented TGI for O=P(O)(O)CN1CCNCCN(CP(=O)(O)O)CC1 is > 100 µM

Sure, the documented TGI for O=C1CCC(=O)c2sccc2N1 is > 100 µM

Sure, the documented TGI for CN(C)CN(C)c1nc(N(C)C)nc(N(C)CN(C)C)n1 is 38.9 µM

Sure, the documented TGI for CCc1cc(Cc2ccc(C)c(NC(=O)C(=O)C3C(=O)NC(=O)NC3=O)c2CC)cc(C)c1NC(=O)C(=O)C1C(=O)NC(=O)NC1=O is > 100 µM

Sure, the documented TGI for CC(=O)Nc1ccc(-c2nnc(SCC(=O)Nc3ccc(Cl)cc3)o2)cc1 is 22.6 µM

// provenance: PubChem BioAssay (NCI)
